Structures can show the parent of a compound that is named as a salt.
# reported melting point; entries follow

INSERT INTO measurements (molecule, assay_readout, recorded_measurement) VALUES
  ('CCCN1C(=O)N2CC(Cc3cccc(F)c3)N=C2c2[nH]c(C3CCC3)nc21.Cl (stereo not shown)', 'melting point', '164 to 165 °C'),
  ('CCCN1C(=O)N2CC(Cc3ccc([N+](=O)[O-])cc3)N=C2c2[nH]c(C3CCCC3)nc21.Cl (stereo not shown)', 'melting point', '215 to 217 °C'),
  ('CCCCC1CN2C(=O)N(CCC)c3nc(C4CCCC4)[nH]c3C2=N1.Cl (stereo not shown)', 'melting point', '146 to 148 °C');

Okay, now this molecule:
# molecule CCCN1C(=O)N2CC(Cc3cc(Cl)ccc3Cl)N=C2c2[nH]c(C3CCCC3)nc21 (stereo not shown) (as salt: hydrochloride) ; its melting point = 172 to 173 °C
